Where do these numbers come from? They come from paper PMC10871122.

Measured melting point values are reported for all entries that follow.
Metric: melting point

Molecule	Observed
O=C(NN=Cc1ccccc1)C1CC(=O)N(c2ccc(Nc3ccccc3)cc2)C1 (stereo not shown) [Compound 2]	122 to 123 °C
CCN(CC)c1ccc(C=NNC(=O)C2CC(=O)N(c3ccc(Nc4ccccc4)cc3)C2)c(O)c1 (stereo not shown) [Compound 8]	239 to 240 °C
CC(=NNC(=O)C1CC(=O)N(c2ccc(Nc3ccccc3)cc2)C1)c1cccc(N)c1 (stereo not shown) [Compound 17]	239 to 240 °C
O=C(NN=Cc1ccc([N+](=O)[O-])s1)C1CC(=O)N(c2ccc(Nc3ccccc3)cc2)C1 (stereo not shown) [Compound 13]	235 to 236 °C
O=C(NN=Cc1cc(Cl)ccc1O)C1CC(=O)N(c2ccc(Nc3ccccc3)cc2)C1 (stereo not shown) [Compound 5]	223 to 224 °C
O=C(NN=Cc1ccc(Br)cc1)C1CC(=O)N(c2ccc(Nc3ccccc3)cc2)C1 (stereo not shown) [Compound 3]	198 to 199 °C
O=C(NN=Cc1ccc(Cl)c(Cl)c1)C1CC(=O)N(c2ccc(Nc3ccccc3)cc2)C1 (stereo not shown) [Compound 6]	220 to 221 °C
O=C(NN=Cc1ccc(Br)s1)C1CC(=O)N(c2ccc(Nc3ccccc3)cc2)C1 (stereo not shown) [Compound 12]	240 to 241 °C
O=C(NN=Cc1c[nH]c2ccccc12)C1CC(=O)N(c2ccc(Nc3ccccc3)cc2)C1 (stereo not shown) [Compound 14]	238 to 239 °C
O=C(NN=Cc1ccc[nH]1)C1CC(=O)N(c2ccc(Nc3ccccc3)cc2)C1 (stereo not shown) [Compound 11]	234 to 235 °C
CSc1ccc(C=NNC(=O)C2CC(=O)N(c3ccc(Nc4ccccc4)cc3)C2)cc1 (stereo not shown) [Compound 10]	193 to 194 °C
CC(=NNC(=O)C1CC(=O)N(c2ccc(Nc3ccccc3)cc2)C1)c1ccccc1 (stereo not shown) [Compound 15]	225 to 226 °C
O=C(NN=Cc1ccc(Cl)cc1)C1CC(=O)N(c2ccc(Nc3ccccc3)cc2)C1 (stereo not shown) [Compound 4]	209 to 210 °C
CN(C)c1ccc(C=NNC(=O)C2CC(=O)N(c3ccc(Nc4ccccc4)cc3)C2)cc1 (stereo not shown) [Compound 7]	218 to 219 °C
O=C(NN=Cc1ccccc1[N+](=O)[O-])C1CC(=O)N(c2ccc(Nc3ccccc3)cc2)C1 (stereo not shown) [Compound 9]	192 to 193 °C
CC(=NNC(=O)C1CC(=O)N(c2ccc(Nc3ccccc3)cc2)C1)c1ccc(N)cc1 (stereo not shown) [Compound 16]	230 to 231 °C
